- Experiment Summary: Half life in C57BL/6 mouse brain at 30 mg/kg, po measured upto 24 hrs by LC-ESI-MS/MS analysis
- Type: ADME, organism-based
Experimental Endpoint: half-life (min)
One number for each entry, in min.

(Q) # half-life lookup, item O=C([C@H]1C[C@@H](c2cccc(Cl)c2)CN1)N1CCN(c2nccc3ccsc23)CC1
(A) 54

* * *

- Experiment Summary: Half life in C57BL/6 mouse brain at 100 mg/kg, po measured upto 6 hrs by LC-ESI-MS/MS analysis
- Format: ADME, organism-based
Experimental Endpoint: half-life (h)
Numbers only, in h.

(Q) Return reported half-life; argument: O=C([C@H]1C[C@@H](c2cccc(Cl)c2)CN1)N1CCN(c2nccc3ccsc23)CC1
(A) 2.7

* * *

- Experiment Summary: AUC (0 to infinity) in C57BL/6 mouse plasma at 30 mg/kg, po measured upto 24 hrs by LC-ESI-MS/MS analysis
- Format: ADME, organism-based
- Parameters: time < 24 hrs, dose 30 mg/kg, route po
Experimental Endpoint: AUC(0-inf) (ng·h/mL)
Numbers only, in ng·h/mL.

(Q) Endpoint output: AUC(0-inf) of O=C([C@H]1C[C@@H](c2cccc(Cl)c2)CN1)N1CCN(c2nccc3ccsc23)CC1 . Value?
(A) 4200

* * *

- Experiment Summary: Cmax in C57BL/6 mouse plasma at 100 mg/kg, po measured upto 24 hrs by LC-ESI-MS/MS analysis
- Assay type: ADME, organism-based
- Set-up: time < 24 hrs, dose 100 mg/kg, route po
Experimental Endpoint: Cmax (ng/mL)
Numbers only, in ng/mL.

(Q) Requested field: Cmax. Item: O=C([C@H]1C[C@@H](c2cccc(Cl)c2)CN1)N1CCN(c2nccc3ccsc23)CC1
(A) 4000
